Assay: compound binding in COS7 lysate, probe aLAP1, primary screen, cell lysate, small-molecule microarray (AID 1124);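 note: lysate comes from COS7 cells expressing LAP1 and is applied at 0.3 µg/mL; score merges spot fluorescence near 667 nm with signal-to-noise over triplicate slides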
Conditions: probe aLAP1, fluorescence, higher = more signal
Would you mind labelling by composite z-score? At or over 0.3 is criterion met, under is criterion not met.

These solved cases illustrate the format of a correct answer.
CC(C)C(=C=CC[C@@H](O)c1ccc(CO)o1)CCO | criterion not met
O=C1O[C@H](c2ccccc2)[C@H](c2ccccc2)N2[C@H]1[C@@H](C(=O)NC[C@H](O)c1ccccc1)[C@]1(C(=O)Nc3ccc(C#CC4(O)CCCCCC4)cc31)[C@H]2c1ccc(O)cc1 | criterion met
COCCCNC(=O)[C@@]1(Cc2ccccc2CN=[N+]=[N-])COC(c2ccc(OCCCO)cc2)=N1 | criterion met
C[N+](C)(C)CCCCNC(=O)[C@@H]1C[C@@H]2C(=O)NCC(=O)N2[C@@H]1c1cccc(OCCO)c1 | criterion met
CC(C)(C)OC(=O)CC[C@]1(C(=O)NCc2ccccc2)N=C(c2ccc(OCCCO)cc2)O[C@H]1c1ccccc1N=[N+]=[N-] | criterion met
C=C(C(=O)CC[C@@H](OC(C)=O)c1ccccc1OCCO)C(C)C | criterion not met
C[N+](C)(C)CCCC[C@@H]1NC(=O)[C@H]2C[C@@H](C(=O)NCCCCCN)[C@@H](c3cccc(OCCO)c3)N2C1=O | criterion met
C=CCNC(=O)[C@@H]1[C@H]2C(=O)O[C@H](c3ccccc3)[C@H](c3ccccc3)N2[C@H](c2ccc(O)cc2)[C@@]12C(=O)N(C(=O)OCCOC)c1ccc(C#Cc3ccc(OC)cc3)cc12 | criterion met
[N-]=[N+]=NCc1ccccc1C[C@]1(C(=O)NCc2ccccc2)N=C(c2ccc(OCCCO)cc2)O[C@H]1c1ccccc1 | criterion met
COc1ccc([Si](C)(C)[C@@H]2[C@@H](CCn3cc(CCO)nn3)O[C@]3(C(=O)N(Cc4ccc(N5C(=O)c6cccc7cccc5c67)cc4)c4ccccc43)[C@H]2C)cc1 | criterion not met

Enquiry: Can `[N-]=[N+]=NCc1ccccc1C[C@@]1(C(=O)O)N=C(c2ccc(OCCCO)cc2)O[C@@H]1c1ccccc1` be said to have composite z-score at or above 0.3?
Return: criterion met

Enquiry: Another molecule to look at: `C=CCN1C(=O)[C@@]2(O[C@@H](CCn3cc(CCO)nn3)[C@H]([Si](C)(C)c3ccc(OC)cc3)[C@H]2C)c2cc(N3C(=O)c4cccc5cccc3c45)ccc21`
Return: criterion not met

Enquiry: Follow-up entry: `CCCNC(=O)[C@@]1(Sc2ccc(C)cc2)CC(=O)N(Cc2cc(C(F)(F)F)cc(C(F)(F)F)c2)[C@@H]1c1ccc(CO)cc1I`
Return: criterion met

Enquiry: Same again, this time with `O=C1N(CCS(=O)(=O)c2ccccc2)Cc2ccccc2[C@@H]2OC(c3ccc(OCCCO)cc3)=N[C@]12Cc1ccccc1`
Return: criterion met

Enquiry: Entry `C=C(COC)/C(=C/C[C@H](OC(C)=O)c1ccc(CO)o1)c1cnc2ccccc2c1` please
Return: criterion not met

Enquiry: Do the same for `NCCCCCNC(=O)[C@H]1C[C@H]2C(=O)NCC(=O)N2[C@H]1c1ccc(O)cc1` please
Return: criterion met

----------
Assay: PSAC antagonists in infected red cells, primary screen, cell-based, P. falciparum Indochina, OD700, 1 h (AID 1154)
Settings: P. falciparum Indochina infected RBC osmotic lysis, higher = more signal, called active from +8 up or from −8 down
# Lookup of reported z-score keyed by entry
The answer should be written as a number, with no unit following it.

Look over these answered cases.
CO[C@H]1O[C@H](CO)[C@@H](OC(=O)Nc2ccccc2)[C@H](OC(=O)Nc2ccccc2-c2ccccc2)[C@H]1OC(=O)Nc1ccccc1-c1ccccc1 | 3.27
CCCCC(=C=CC[C@H](O)c1cccc(OCCO)c1)CCO | 11.4
NCCCCCCNC(=O)[C@@H]1C[C@@H]2C(=O)N[C@@H](Cc3ccccc3)C(=O)N2[C@@H]1c1ccc(O)cc1 | 3.47

Enquiry: Form field: reported z-score of `C=CC[C@]1(C(=O)N2CCCCC2)COC(c2ccc(OCCCO)cc2)=N1`
Return: 24.9

Enquiry: Proceed to `C=CCOC(=O)[C@H]1[C@@H]2C(=O)O[C@@H](c3ccccc3)[C@@H](c3ccccc3)N2[C@@H](c2ccc(OCCOC(=O)[C@H]3C[C@H]4C(=O)N5CCC[C@H]5C(=O)N4[C@H]3c3cccc(OCCO)c3)cc2)[C@]12C(=O)Nc1ccccc12`
Return: 5.04

Values compiled from PubChem BioAssay.
